# Tested on: BT474 cells (HER2 positive breast cancer cells)
# Test description: Cell viability assay (CCK8), BT474 cells
# Format: cell-based
# Assay setup: Homo sapiens, BT-474, Table 10, BT474, 72 hours, read-out: IC50 (half inhibitory concentration)
pIC50: −log10 of the molar value.
Observable: pIC50

Use the examples below as a reference point.
Compound	Value
COc1cc2ncnc(Nc3ccc(F)c(Cl)c3)c2cc1NC(=O)/C=C/CN1CCC(N2CCN(Cc3ccc(CNc4cccc5c4CN(C4CCC(=O)NC4=O)C5=O)cc3)CC2)CC1 (centres unmarked) [SIAIS337024]	7.29
COc1cc2ncnc(Nc3ccc(Cl)c(Cl)c3F)c2cc1OC1CCN(C(=O)CCSc2cccc3c2CN(C2CCC(=O)NC2=O)C3=O)CC1 (centres unmarked) [SIAIS219165]	8.57
COc1cc2ncnc(Nc3ccc(F)c(Cl)c3)c2cc1NC(=O)/C=C/CN1CCC(N2CCN(C(=O)CNc3cccc4c3C(=O)N(C3CCC(=O)NC3=O)C4=O)CC2)CC1 (centres unmarked) [SIAIS262036]	9.52
COc1cc2ncnc(Nc3ccc(F)c(Cl)c3)c2cc1NC(=O)/C=C/CN1CCC(N)CC1 [SIAIS249077]	7.91

[A] COc1cc2ncnc(Nc3ccc(F)c(Cl)c3)c2cc1NC(=O)/C=C/CN1CCC(NC(=O)CCCCCNc2cccc3c2C(=O)N(C2CCC(=O)NC2=O)C3=O)CC1 (centres unmarked) [SIAIS249084]
[B] C=CC(=O)Nc1cc2c(Nc3ccc(F)c(Cl)c3)ncnc2cc1OCCCN1CCC(N2CCN(C(=O)CCCCSc3cccc4c3CN(C3CCC(=O)NC3=O)C4=O)CC2)CC1 (centres unmarked) [SIAIS262175]
[C] COc1cc2ncnc(Nc3ccc(F)c(Cl)c3)c2cc1NC(=O)/C=C/CN1CCC(NC(=O)CCCNc2cccc3c2C(=O)N(C2CCC(=O)NC2=O)C3=O)CC1 (centres unmarked) [SIAIS249083]
input: // smallest pIC50 at index 0, largest at the end Submit the labels in the order that the ranking request calls for.
output: C, B, A

[I] C=CC(=O)Nc1cc2c(Nc3ccc(F)c(Cl)c3)ncnc2cc1OCCCN1CCN(CCCCC#CC2c3ccccc3C(=O)N2C2CCC(=O)NC2=O)CC1 (centres unmarked) [SIAIS262131]
[II] COc1cc2ncnc(Nc3ccc(F)c(Cl)c3)c2cc1NC(=O)/C=C/CN1CCC(N2CCN(CCCCCSc3cccc4c3CN(C3CCC(=O)NC3=O)C4=O)CC2)CC1 (centres unmarked) [SIAIS262064]
input: Which entry has a larger number for pIC50, I or II ? Please identify the chosen entry by its label.
output: II

[a] C=CC(=O)Nc1cc2c(Nc3ccc(F)c(Cl)c3)ncnc2cc1OCCCN1CCN(C(=O)CCC(=O)NCCOCCNc2cccc3c2C(=O)N(C2CCC(=O)NC2=O)C3=O)CC1 (centres unmarked) [SIAIS249099]
[b] COc1cc2ncnc(Nc3ccc(F)c(Cl)c3)c2cc1NC(=O)/C=C/CN1CCC(N2CCN(C(=O)CCCCCCNc3cccc4c3C(=O)N(C3CCC(=O)NC3=O)C4=O)CC2)CC1 (centres unmarked) [SIAIS262037]
input: Which entry has a larger number for pIC50, a or b ? Please identify the chosen entry by its label.
output: b
(b: 9.05, a: 7.45)

---

# Test system: HCC827 cells (EGFR Exon19 del, non-small cell lung cancer cells)
# Test description: Cell viability assay (WST/CCK8), HCC827 cells
# Format: cell-based
# Assay setup: Homo sapiens, HCC827, 72 h, HCC827 (Exon19 Del), 72 hours, WST (CCK8); read-out: IC50 (half inhibitory concentration)
Observable: IC50 (nM)

Use the examples below as a reference point.
Compound	IC50 [nM]
COc1cc2ncnc(Nc3ccc(F)c(Cl)c3)c2cc1NC(=O)/C=C/CN1CCC(N2CCN(CCCC#Cc3cccc4c3CN(C3CCC(=O)NC3=O)C4=O)CC2)CC1 (stereo not drawn) [SIAIS262050]	0.8
COc1cc2ncnc(Nc3ccc(F)c(Cl)c3)c2cc1NC(=O)/C=C/CN1CCN(C(=O)CCCCCCNc2cccc3c2CN(C2CCC(=O)NC2=O)C3=O)CC1 (stereo not drawn) [SIAIS249060]	11.5

[1] COc1cc2ncnc(Nc3ccc(F)c(Cl)c3)c2cc1NC(=O)/C=C/CN1CCN(C(=O)COCCOCCOCCOCCOCCSc2cccc3c2CN(C2CCC(=O)NC2=O)C3=O)CC1 (stereo not drawn) [SIAIS262004]
[2] COc1cc2ncnc(Nc3ccc(F)c(Cl)c3)c2cc1NC(=O)/C=C/CN1CCC(N2CCN(Cc3ccc(CNc4cccc5c4CN(C4CCC(=O)NC4=O)C5=O)cc3)CC2)CC1 (stereo not drawn) [SIAIS337024]
[3] C=CC(=O)N1CCC(Oc2cc3c(Nc4ccc(Cl)c(Cl)c4F)ncnc3cc2OC)CC1 [poziotinib, reference compound]
[4] COc1cc2ncnc(Nc3ccc(F)c(Cl)c3)c2cc1NC(=O)/C=C/CN1CCN(C(=O)COCCSc2cccc3c2CN(C2CCC(=O)NC2=O)C3=O)CC1 (stereo not drawn) [SIAIS219193]
input: Ordering criterion: IC50; begin with the maximum. Submit the labels in the order that the ranking request calls for.
output: 1, 4, 2, 3

---

# System: PC9 cells (EGFR Exon 19 del, non-small cell lung cancer cells)
# Test description: Cell viability assay (WST/CCK8), PC9 cells
# Assay type: cell-based
# Assay setup: Homo sapiens, PC-9; PC9 (Exon19 Del), 72 hours, WST (CCK8); read-out: IC50 (half inhibitory concentration)
Observable: IC50 (nM)

In [3]: df
Out[3]:
                                   compound  value
0  COc1cc2ncnc(Nc3ccc(F)c(Cl)c3)c2cc1NC(=O)/C=C/CN1CCN(C(=O)CCCSc2cccc3c2C(=O)N(C2CCC(=O)NC2=O)C3=O)CC1 (stereo not drawn)   47.7

[P] COc1cc2ncnc(Nc3ccc(F)c(Cl)c3)c2cc1NC(=O)/C=C/CN1CCN(C(=O)CNc2cccc3c2C(=O)N(C2CCC(=O)NC2=O)C3=O)CC1 (stereo not drawn)
[Q] COc1cc2ncnc(Nc3ccc(F)c(Cl)c3)c2cc1NC(=O)/C=C/CN1CCC(NC(=O)CCCSc2cccc3c2CN(C2CCC(=O)NC2=O)C3=O)CC1 (stereo not drawn)
input: Lower IC50: P or Q ? Please identify the chosen entry by its label.
output: P

---

# Test system: PC9 cells (EGFR Exon 19 del, non-small cell lung cancer cells)
# Test description: Cell viability assay (WST/CCK8), PC9 cells
# Assay type: cell-based
# Assay setup: Homo sapiens, PC-9; Table 6, canertinib-based compounds; PC9 (Exon19 Del); 72 hours; WST; read-out: IC50 (half inhibitory concentration)
pIC50: −log10 of the molar value.
Observable: pIC50

Molecule	pIC50
C=CC(=O)Nc1cc2c(Nc3ccc(F)c(Cl)c3)ncnc2cc1OCCCN1CCN(C(=O)CCCC(=O)N[C@H](C(=O)N2C[C@H](O)C[C@H]2C(=O)NCc2ccc(-c3scnc3C)cc2)C(C)(C)C)CC1	7.80

[P] C=CC(=O)Nc1cc2c(Nc3ccc(F)c(Cl)c3)ncnc2cc1OCCCN1CCC(N2CCN(CCCCCCSc3cccc4c3CN(C3CCC(=O)NC3=O)C4=O)CC2)CC1 (stereo not drawn)
[Q] C=CC(=O)Nc1cc2c(Nc3ccc(F)c(Cl)c3)ncnc2cc1OCCCN1CCN(C(=O)CCOCCOCCOCCOCCC(=O)N[C@H](C(=O)N2C[C@H](O)C[C@H]2C(=O)NCc2ccc(-c3scnc3C)cc2)C(C)(C)C)CC1
input: Lower pIC50: P or Q ? Please identify the chosen entry by its label.
output: Q
(Q: 6.75, P: 7.99)

---

# Tested on: HCC827 cells (EGFR Exon19 del, non-small cell lung cancer cells)
# Test description: Cell viability assay (WST/CCK8), HCC827 cells
# Format: cell-based
# Assay setup: Homo sapiens, HCC827, 72 h, HCC827 (Exon19 Del), 72 hours, WST (CCK8); read-out: IC50 (half inhibitory concentration)
Observable: IC50 (nM)

Use the examples below as a reference point.
Compound	IC50 [nM]
COc1cc2ncnc(Nc3ccc(F)c(Cl)c3)c2cc1NC(=O)/C=C/CN1CCC(N2CCN(C(=O)CCc3ccc(CCC(=O)N[C@H](C(=O)N4C[C@H](O)C[C@H]4C(=O)NCc4ccc(-c5scnc5C)cc4)C(C)(C)C)cc3)CC2)CC1	16.2
COc1cc2ncnc(Nc3ccc(F)c(Cl)c3)c2cc1NC(=O)/C=C/CN1CCN(C(=O)CCOCCOCCOCCNc2cccc3c2C(=O)N(C2CCC(=O)NC2=O)C3=O)CC1 (stereo not shown)	23.6
COc1cc2ncnc(Nc3ccc(F)c(Cl)c3)c2cc1NC(=O)/C=C/CN1CCC(NC(=O)CCCCCSc2cccc3c2CN(C2CCC(=O)NC2=O)C3=O)CC1 (stereo not shown)	4
COc1cc2ncnc(Nc3ccc(F)c(Cl)c3)c2cc1NC(=O)/C=C/CN1CCN(C(=O)CCCNc2cccc3c2CN(C2CCC(=O)NC2=O)C3=O)CC1 (stereo not shown)	11.5
COc1cc2ncnc(Nc3ccc(F)c(Cl)c3)c2cc1NC(=O)/C=C/CN1CCC(N2CCN(C(=O)CCCCCCNc3cccc4c3CN(C3CCC(=O)NC3=O)C4=O)CC2)CC1 (stereo not shown)	0.7

[I] COc1cc2ncnc(Nc3ccc(F)c(Cl)c3)c2cc1NC(=O)/C=C/CN1CCN(C(=O)COCCOCCOCCOCCOCCSc2cccc3c2C(=O)N(C2CCC(=O)NC2=O)C3=O)CC1 (stereo not shown)
[II] COc1cc2ncnc(Nc3ccc(F)c(Cl)c3)c2cc1NC(=O)/C=C/CN1CCN(C(=O)CCCCCSc2cccc3c2CN(C2CCC(=O)NC2=O)C3=O)CC1 (stereo not shown)
input: Which entry has a larger number for IC50, I or II ? Please identify the chosen entry by its label.
output: I
